Entries and their interaction score values follow.
# Target Of Assay: T1, P6-AA-12HAA-D
# T1 chain: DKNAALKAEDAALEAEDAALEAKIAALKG
# Protocol Summary: two-hybrid library CCmax;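 note: natural log of median RNA to DNA barcode read ratio; higher means stronger binding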
# Experimental Setup: mean of both orientations
Property Label: interaction score

binder="DENAALEAKYAALKAKYAALKAEIAALEG [P5-AA-12HAA-Y]" reported=-1.3
binder="DENAALEAKLAALKAKLAALKAEIAALEG [P5-AA-12HAA-L]" reported=-1.57
binder="DENAALEAKVAALKAKVAALKAEIAALEG [P5-AA-12HAA-V]" reported=-1.5
binder="DENAALEAKTAALKAKTAALKAEIAALEG [P5-AA-12HAA-T]" reported=-2.09
binder="DENAALEAKKAALKAKKAALKAEIAALEG [P5-AA-12HAA-K]" reported=-1.9
binder="DENAALEAKAAALKAKAAALKAEIAALEG [P5-AA-12HAA-A]" reported=-1.63
binder="DENAALEAKDAALKAKDAALKAEIAALEG [P5-AA-12HAA-D]" reported=-1.47
